# test target: dopamine transporter (DAT) (Homo sapiens, UniProt Q01959)
# Sequence (Q01959 whole entry): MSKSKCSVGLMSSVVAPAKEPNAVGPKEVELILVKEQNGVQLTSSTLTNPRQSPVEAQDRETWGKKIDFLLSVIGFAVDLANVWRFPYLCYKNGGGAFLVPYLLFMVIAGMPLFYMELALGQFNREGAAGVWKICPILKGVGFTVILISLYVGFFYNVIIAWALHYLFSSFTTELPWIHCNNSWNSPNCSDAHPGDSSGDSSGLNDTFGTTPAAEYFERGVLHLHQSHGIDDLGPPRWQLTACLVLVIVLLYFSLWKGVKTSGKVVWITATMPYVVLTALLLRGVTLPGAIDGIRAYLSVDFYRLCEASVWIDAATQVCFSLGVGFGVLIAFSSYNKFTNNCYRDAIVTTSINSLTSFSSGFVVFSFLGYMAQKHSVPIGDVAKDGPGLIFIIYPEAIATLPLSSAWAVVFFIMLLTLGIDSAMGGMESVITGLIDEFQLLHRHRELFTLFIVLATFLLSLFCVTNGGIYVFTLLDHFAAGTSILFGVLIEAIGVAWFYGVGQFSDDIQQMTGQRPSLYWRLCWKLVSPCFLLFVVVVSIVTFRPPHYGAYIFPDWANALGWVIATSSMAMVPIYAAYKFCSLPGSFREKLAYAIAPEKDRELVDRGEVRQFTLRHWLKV
# experiment: Displacement of […] from recombinant human Dopamine transporter at 10 uM after 120 mins by scintillation counting analysis relative to control
# Assay type: ADME
value kind: inhibition at 2 h, 10 µM (%)
All answers are understood in %, so give the number only.

Quick one: inhibition at 2 h, 10 µM of COc1cccc2c(N3CCN(c4ccccc4F)CC3)c(C#N)cnc12 ?
85

----------
# experiment: Fraction unbound in mouse brain at 5 uM incubated for 6 hrs by equilibrium dialysis based LC-MS/MS analysis
# Type: ADME, tissue-based
Property: fraction unbound at 6 h, 5 µM; scope: individual molecules

Worked examples follow.
| molecule | value kind | reported result |
| --- | --- | --- |
| CC(C)Oc1cc(F)cc2c(N3CCN(c4ccccc4F)CC3)c(C#N)cnc12 | fraction unbound at 6 h, 5 µM | 0.001 |
| N#Cc1cnc2c(OC3CCOC3)cccc2c1N1CCN(c2ccccc2F)CC1 (racemic) | fraction unbound at 6 h, 5 µM | 0.01 |
| [2H]C([2H])([2H])Oc1cc(F)cc2c(N3CCN(c4ccccc4F)CC3)c(C#N)cnc12 | fraction unbound at 6 h, 5 µM | 0.001 |

# fraction unbound at 6 h, 5 µM lookup, item N#Cc1cnc2c(N3CCOCC3)cccc2c1N1CCN(c2ccccc2F)CC1
0.002

----------
# experiment: Fraction unbound in rat brain at 5 uM incubated for 6 hrs by equilibrium dialysis based LC-MS/MS analysis
# Type: ADME, tissue-based
value kind: fraction unbound at 6 h, 5 µM
Respond numerically, and do not add a unit to the figure.

| molecule | reported result |
| --- | --- |
| N#Cc1cnc2c(N3CCOCC3)cccc2c1N1CCN(c2ccccc2F)CC1 | 0.002 |
| [2H]C([2H])([2H])Oc1cc(F)cc2c(N3CCN(c4ccccc4F)CC3)c(C#N)cnc12 | 0.002 |
| N#Cc1cnc2c(OC3CCOC3)cccc2c1N1CCN(c2ccccc2F)CC1 (racemic) | 0.006 |

So what does the record say about fraction unbound at 6 h, 5 µM for CC(C)Oc1cc(F)cc2c(N3CCN(c4ccccc4F)CC3)c(C#N)cnc12 ?
0.001

----------
# test target: Metabotropic glutamate receptor 7 (Rattus norvegicus, UniProt P35400)
# Sequence (P35400 whole entry): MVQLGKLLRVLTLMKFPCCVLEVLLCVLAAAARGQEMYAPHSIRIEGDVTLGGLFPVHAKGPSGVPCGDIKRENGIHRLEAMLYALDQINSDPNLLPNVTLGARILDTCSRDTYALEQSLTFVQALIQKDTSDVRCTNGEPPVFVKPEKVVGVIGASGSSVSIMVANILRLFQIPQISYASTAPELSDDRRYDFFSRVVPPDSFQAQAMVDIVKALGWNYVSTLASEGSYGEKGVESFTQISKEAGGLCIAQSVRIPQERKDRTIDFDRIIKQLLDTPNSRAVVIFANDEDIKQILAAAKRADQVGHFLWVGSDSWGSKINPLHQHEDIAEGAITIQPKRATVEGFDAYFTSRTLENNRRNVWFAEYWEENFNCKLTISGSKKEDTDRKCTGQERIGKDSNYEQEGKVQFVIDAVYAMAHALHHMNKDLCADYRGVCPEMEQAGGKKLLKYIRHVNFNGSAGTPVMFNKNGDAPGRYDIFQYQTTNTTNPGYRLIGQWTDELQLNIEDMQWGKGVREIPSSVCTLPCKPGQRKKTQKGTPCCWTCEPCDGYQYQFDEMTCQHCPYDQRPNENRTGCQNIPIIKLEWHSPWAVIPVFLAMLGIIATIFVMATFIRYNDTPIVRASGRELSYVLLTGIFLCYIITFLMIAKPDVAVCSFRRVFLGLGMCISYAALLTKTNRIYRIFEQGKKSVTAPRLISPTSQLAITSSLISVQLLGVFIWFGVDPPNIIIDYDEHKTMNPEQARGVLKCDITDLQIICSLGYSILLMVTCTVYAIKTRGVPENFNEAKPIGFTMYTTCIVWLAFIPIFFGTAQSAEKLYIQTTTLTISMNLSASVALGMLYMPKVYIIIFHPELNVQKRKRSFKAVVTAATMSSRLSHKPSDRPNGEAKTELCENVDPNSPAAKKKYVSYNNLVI
# experiment: Positive allosteric modulation of rat mGlu7 expressed in HEK293 cells co- expressing GIRK assessed as potentiation of L-AP4-induced thallium flux incubated for 140 sec by FluoZin2-AM dye based fluorescence analysis
# Assay type: cell-based
value kind: pEC50
// pEC50 is dimensionless: -log10 of concentration (M)

Past entries and their recorded results:
| compound | reported result |
| --- | --- |
| N#Cc1cnc2c(N3CCOCC3)cccc2c1N1CCN(c2ccccc2F)CC1 | 6.15 |
| CC(C)Oc1cc(F)cc2c(N3CCN(c4ccccc4F)CC3)c(C#N)cnc12 | 6.12 |
| N#Cc1cnc2c(OC3CCOC3)cccc2c1N1CCN(c2ccccc2F)CC1 (racemic) | 6.00 |

Reported pEC50 for Metabotropic glutamate receptor 7 (Rattus norvegicus, UniProt P35400), given COc1cccc2c(N3CCN(c4ccccc4F)CC3)c(C#N)cnc12 ?
6.06

Requested read-out pEC50, target or system Metabotropic glutamate receptor 7 (Rattus norvegicus, UniProt P35400), entry [2H]C([2H])([2H])Oc1cc(F)cc2c(N3CCN(c4ccccc4F)CC3)c(C#N)cnc12
6.00
